Just for reference, paper PMC9490236 is where these values come from.

Cond: PAMPA
Where a SMILES comes first, the peptide text is derived from it. [ ]: non-standard residue; d: D form. NMeF = CN[C@@H](Cc1ccccc1)C(=O)O; dNMeF = CN[C@H](Cc1ccccc1)C(=O)O; NMeL = CN[C@@H](CC(C)C)C(=O)O; dNMeL = CN[C@H](CC(C)C)C(=O)O; NMeA = CN[C@@H](C)C(=O)O
Quantity kind: PAMPA_R1

Before answering, review these 5 worked examples.
query: PAMPA_R1 for CC(C)C[C@H]1NC(=O)[C@@H](C(C)C)NC(=O)[C@H](CC(C)C)N(C)C(=O)[C@@H](Cc2ccccc2)NC(=O)[C@H](CC(C)C)N(C)C(=O)[C@H]2CCCN2C(=O)[C@@H]2CCCN2C(=O)[C@H]2CCCN2C(=O)[C@@H](C(C)C)NC(=O)[C@H]2CCCN2C1=O [Design D10.42] (cyclo([dP][NMeL][dF][NMeL][dV][dL][dP][dV][dP]P)) ?
result: 7.55E-07

query: PAMPA_R1 for CC(C)C[C@@H]1C(=O)N(C)[C@@H](Cc2ccccc2)C(=O)N[C@@H](C(C)C)C(=O)N2CCC[C@H]2C(=O)NCC(=O)N2CCC[C@H]2C(=O)N(C)[C@H](CC(C)C)C(=O)N[C@@H](C(C)C)C(=O)N[C@H](CC(C)C)C(=O)N1C (single isomer, unassigned) [Design D9.43.p2] ?
result: 3.34E-06

query: PAMPA_R1 for CC[C@@H](C)[C@H]1NC(=O)[C@@H](Cc2ccccc2)NC(=O)[C@@H](CC(C)C)NC(=O)[C@@H]2CCCN2C(=O)[C@H]2CCCN2C(=O)[C@H](CC(C)C)NC(=O)[C@H](CC(C)C)NC(=O)[C@@H](CC(C)C)N(C)C(=O)[C@H](C)N(C)C(=O)[C@H]2CCCN2C1=O [Design D10.34] (cyclo([dL][dF][dI][dP][NMeA][dNMeL]LL[dP]P)) ?
result: 4.77E-06

query: PAMPA_R1 for CC[C@@H](C)[C@H]1NC(=O)[C@H](CC(C)C)NC(=O)[C@@H](CC(C)C)NC(=O)[C@H](C(C)C)NC(=O)[C@@H]2CCCN2C(=O)[C@H](CC(C)C)N(C)C(=O)[C@@H](CC(C)C)NC(=O)[C@H](Cc2ccccc2)N(C)C(=O)[C@H]2CCCN2C1=O [Design D9.38] (cyclo(L[dI][dP][NMeF][dL][NMeL]PV[dL])) ?
result: BQL

query: PAMPA_R1 for CC[C@@H](C)[C@H]1NC(=O)[C@H]2CCCN2C(=O)[C@@H](C)NC(=O)[C@@H](CC(C)C)N(C)C(=O)[C@H]([C@@H](C)CC)NC(=O)[C@@H](C(C)C)NC(=O)[C@@H](CC(C)C)N(C)C(=O)[C@@H]2CCCN2C(=O)[C@@H]2CCCN2C1=O [Design D9.26] (cyclo(I[dNMeL][dA][dP][dI]PP[dNMeL][dV])) ?
result: 2.58E-06

# ---- query compound ----
query: PAMPA_R1 for CC(C)C[C@@H]1C(=O)N(C)[C@H](Cc2ccccc2)C(=O)N(C)[C@@H](CC(C)C)C(=O)N[C@H](C(C)C)C(=O)N[C@H](C)C(=O)N2CCC[C@@H]2C(=O)N2CCC[C@H]2C(=O)N[C@H](C)C(=O)N1C [Design D8.20, PRO DALA *DLEU *DPHE *LEU DVAL DALA DPRO] (cyclo([dA][dNMeL][dNMeF][NMeL][dV][dA][dP]P)) ?
result: 1.00E-06

====

Cond: PAMPA
Where a SMILES comes first, the peptide text is derived from it. [ ]: non-standard residue; d: D form. NMeF = CN[C@@H](Cc1ccccc1)C(=O)O; dNMeF = CN[C@H](Cc1ccccc1)C(=O)O; dNMeL = CN[C@H](CC(C)C)C(=O)O; dNMeA = CN[C@H](C)C(=O)O
Quantity kind: PAMPA_Papp_Avg

Before answering, review these 5 worked examples.
query: PAMPA_Papp_Avg for CC[C@@H](C)[C@H]1NC(=O)[C@@H](CC(C)C)N(C)C(=O)[C@H](CC(C)C)NC(=O)[C@@H](C(C)C)NC(=O)[C@@H]2CCCN2C(=O)[C@H]2CCCN2C(=O)[C@@H]([C@H](C)CC)NC(=O)[C@@H](C)N(C)C(=O)[C@@H]([C@H](C)CC)NC(=O)[C@H](Cc2ccccc2)N(C)C(=O)[C@H]2CCCN2C(=O)[C@@H](Cc2ccccc2)NC1=O [Design D12.7] (cyclo([dV]L[dNMeL][dI][dF][dP][NMeF][dI][dNMeA][dI][dP]P)) ?
result: BQL

query: PAMPA_Papp_Avg for CC[C@H](C)[C@@H]1NC(=O)[C@H](Cc2ccccc2)N(C)C(=O)[C@H]2CCCN2C(=O)[C@@H](CC(C)C)N(C)C(=O)[C@@H](Cc2ccccc2)NC(=O)[C@H](C(C)C)NC(=O)[C@H](CC(C)C)NC(=O)[C@H]2CCCN2C(=O)[C@H](CC(C)C)NC(=O)[C@@H]2CCCN2C1=O [Design D10.50] (cyclo(IPL[dP]LV[dF][dNMeL][dP][NMeF])) ?
result: 6.28E-07

query: PAMPA_Papp_Avg for CC[C@H](C)[C@@H]1NC(=O)[C@@H](CC(C)C)NC(=O)[C@H](CC(C)C)NC(=O)[C@H]2CCCN2C(=O)[C@@H]2CCCN2C(=O)[C@H](C)NC(=O)[C@H](Cc2ccccc2)N(C)C(=O)[C@@H](C(C)C)NC(=O)[C@H](Cc2ccccc2)N(C)C(=O)[C@@H](Cc2ccccc2)N(C)C1=O [Design D10.51] (cyclo(AP[dP]L[dL]I[dNMeF][NMeF][dV][NMeF])) ?
result: BQL

query: PAMPA_Papp_Avg for CC(C)C[C@@H]1NC(=O)[C@@H](C(C)C)NC(=O)[C@H](CC(C)C)N(C)C(=O)[C@H]2CCCN2C(=O)[C@@H](C(C)C)NC(=O)[C@H]2CCCN2C(=O)[C@@H](C(C)C)NC(=O)[C@@H](Cc2ccccc2)N(C)C(=O)[C@H](CC(C)C)N(C)C1=O (single isomer, unassigned) [Design D9.8.p2] ?
result: 9.35E-07

query: PAMPA_Papp_Avg for CC(C)C[C@@H]1NC(=O)[C@@H](Cc2ccccc2)NC(=O)[C@@H]2CCCN2C(=O)[C@H]2CCCN2C(=O)[C@@H]2CCCN2C(=O)[C@H](C)NC(=O)[C@H](Cc2ccccc2)N(C)C(=O)[C@H]2CCCN2C(=O)[C@@H](CC(C)C)NC(=O)[C@@H](C(C)C)NC1=O [Design D10.54] (cyclo([dF]L[dV][dL][dP][NMeF]AP[dP]P)) ?
result: BQL

# ---- query compound ----
query: PAMPA_Papp_Avg for CC(C)C[C@H]1NC(=O)[C@H]2CCCN2C(=O)[C@@H]2CCCN2C(=O)[C@@H](Cc2ccccc2)NC(=O)[C@@H](C(C)C)NC(=O)[C@H](CC(C)C)N(C)C(=O)[C@@H](Cc2ccccc2)NC1=O (single isomer, unassigned) [Design D7.7.p2, PRO DPRO DLEU DPHE *LEU DVAL DPHE] ?
result: 9.06e-06 cm/s

====

Cond: PAMPA
Where a SMILES comes first, the peptide text is derived from it. [ ]: non-standard residue; d: D form. dNMeI = CC[C@@H](C)[C@@H](NC)C(=O)O; NMeL = CN[C@@H](CC(C)C)C(=O)O; dNMeL = CN[C@H](CC(C)C)C(=O)O; NMeA = CN[C@@H](C)C(=O)O; dNMeA = CN[C@H](C)C(=O)O
Quantity kind: PAMPA_R1
Give bare numbers.

Before answering, review these 5 worked examples.
query: PAMPA_R1 for CC[C@H](C)[C@@H]1NC(=O)[C@@H](C(C)C)NC(=O)[C@@H](CC(C)C)N(C)C(=O)[C@H]2CCCN2C(=O)[C@@H](CC(C)C)NC(=O)[C@@H](CC(C)C)N(C)C(=O)[C@H](CC(C)C)NC(=O)[C@H]2CCCN2C(=O)[C@H](C)N(C)C(=O)[C@H]2CCCN2C1=O [Design D10.41] (cyclo(I[dP][NMeA][dP]L[dNMeL][dL][dP][dNMeL][dV])) ?
result: 5.92E-06

query: PAMPA_R1 for CC(C)C[C@@H]1NC(=O)[C@@H]2CCCN2C(=O)[C@@H](Cc2ccccc2)NC(=O)[C@H](C)N(C)C(=O)[C@H](CC(C)C)NC(=O)[C@H](CC(C)C)N(C)C(=O)[C@@H](C)NC(=O)[C@@H](CC(C)C)NC(=O)[C@@H]2CCCN2C(=O)[C@@H](Cc2ccccc2)NC1=O (single isomer, unassigned) [Design D10.2.p2] ?
result: 4.31E-07

query: PAMPA_R1 for CC[C@@H](C)[C@H]1NC(=O)[C@H](C)NC(=O)[C@@H](CC(C)C)N(C)C(=O)[C@H](CC(C)C)N(C)C(=O)[C@H](C(C)C)NC(=O)[C@@H]2CCCN2C(=O)[C@@H](CC(C)C)N(C)C(=O)[C@@H](C)N(C)C(=O)[C@@H](Cc2ccccc2)NC(=O)[C@@H]2CCCN2C(=O)[C@H]2CCCN2C1=O [Design D11.6] (cyclo([dF][dNMeA][dNMeL]PV[NMeL][dNMeL]A[dI][dP]P)) ?
result: 1.24E-06

query: PAMPA_R1 for CC[C@@H](C)[C@H]1NC(=O)[C@H]([C@@H](C)CC)NC(=O)[C@H](CC(C)C)N(C)C(=O)[C@H]2CCCN2C(=O)[C@@H]([C@H](C)CC)NC(=O)[C@@H]([C@H](C)CC)N(C)C(=O)[C@H](CC(C)C)NC(=O)[C@H]2CCCN2C(=O)[C@@H]2CCCN2C(=O)[C@H](C(C)C)NC(=O)[C@H]2CCCN2C1=O [Design D11.3] (cyclo(I[dI][dP]VP[dP]L[dNMeI][dI][dP][NMeL])) ?
result: 1.91E-06

query: PAMPA_R1 for CC(C)C[C@@H]1NC(=O)[C@@H](C)NC(=O)[C@H]2CCCN2C(=O)[C@@H]2CCCN2C(=O)[C@@H](C(C)C)NC(=O)[C@@H](CC(C)C)N(C)C(=O)[C@H]2CCCN2C(=O)[C@H]2CCCN2C(=O)[C@@H](C)N(C)C(=O)[C@H](CC(C)C)N(C)C(=O)[C@@H](Cc2ccccc2)NC1=O [Design D11.16] (cyclo(L[dF][NMeL][dNMeA][dP][dP][dNMeL][dV]P[dP][dA])) ?
result: 3.70E-07

# ---- query compound ----
query: PAMPA_R1 for CC[C@@H](C)[C@H]1NC(=O)[C@H](CC(C)C)N(C)C(=O)[C@H]2CCCN2C(=O)[C@H](CC(C)C)NC(=O)[C@@H](Cc2ccccc2)N(C)C(=O)[C@H](CC(C)C)N(C)C(=O)[C@@H](C(C)C)NC(=O)[C@H](C)NC(=O)[C@H]2CCCN2C(=O)[C@@H]2CCCN2C1=O (single isomer, unassigned) [Design D10.60.p2] ?
result: 1.49E-06
